molecular target: HEK-hKv7.2/hKv7.3 cells (Homo sapiens, UniProt O43525+O43526); construct: P2A self-cleaving peptide between the two subunits (remnant after ribosomal skipping); assay: Thallium influx assay for potassium channel activation; conditions: AUC as readout, normalized to a reference compound
Sequence (O43525 whole entry): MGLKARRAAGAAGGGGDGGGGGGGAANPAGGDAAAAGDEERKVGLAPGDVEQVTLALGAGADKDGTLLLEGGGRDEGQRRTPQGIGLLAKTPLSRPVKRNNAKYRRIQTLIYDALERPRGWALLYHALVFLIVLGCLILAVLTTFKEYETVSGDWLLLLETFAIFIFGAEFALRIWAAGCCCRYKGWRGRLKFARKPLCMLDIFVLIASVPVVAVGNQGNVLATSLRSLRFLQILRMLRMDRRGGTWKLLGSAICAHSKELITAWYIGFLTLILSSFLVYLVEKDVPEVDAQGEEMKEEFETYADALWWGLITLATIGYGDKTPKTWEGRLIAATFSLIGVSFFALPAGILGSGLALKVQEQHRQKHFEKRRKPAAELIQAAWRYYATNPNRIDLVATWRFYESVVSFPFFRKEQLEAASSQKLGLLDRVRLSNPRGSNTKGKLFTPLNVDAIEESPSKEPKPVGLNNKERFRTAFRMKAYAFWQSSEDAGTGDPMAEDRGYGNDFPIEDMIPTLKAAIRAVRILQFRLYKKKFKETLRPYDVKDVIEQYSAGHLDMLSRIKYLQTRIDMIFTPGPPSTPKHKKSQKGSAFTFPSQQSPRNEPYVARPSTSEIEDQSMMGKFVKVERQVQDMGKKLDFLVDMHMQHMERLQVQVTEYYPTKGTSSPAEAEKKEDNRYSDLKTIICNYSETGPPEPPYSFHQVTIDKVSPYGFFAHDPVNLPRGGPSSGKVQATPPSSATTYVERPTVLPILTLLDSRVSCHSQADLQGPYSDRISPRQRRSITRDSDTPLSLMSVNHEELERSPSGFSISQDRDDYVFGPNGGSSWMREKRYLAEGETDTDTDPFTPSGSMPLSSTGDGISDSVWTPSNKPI
Sequence (O43526 whole entry): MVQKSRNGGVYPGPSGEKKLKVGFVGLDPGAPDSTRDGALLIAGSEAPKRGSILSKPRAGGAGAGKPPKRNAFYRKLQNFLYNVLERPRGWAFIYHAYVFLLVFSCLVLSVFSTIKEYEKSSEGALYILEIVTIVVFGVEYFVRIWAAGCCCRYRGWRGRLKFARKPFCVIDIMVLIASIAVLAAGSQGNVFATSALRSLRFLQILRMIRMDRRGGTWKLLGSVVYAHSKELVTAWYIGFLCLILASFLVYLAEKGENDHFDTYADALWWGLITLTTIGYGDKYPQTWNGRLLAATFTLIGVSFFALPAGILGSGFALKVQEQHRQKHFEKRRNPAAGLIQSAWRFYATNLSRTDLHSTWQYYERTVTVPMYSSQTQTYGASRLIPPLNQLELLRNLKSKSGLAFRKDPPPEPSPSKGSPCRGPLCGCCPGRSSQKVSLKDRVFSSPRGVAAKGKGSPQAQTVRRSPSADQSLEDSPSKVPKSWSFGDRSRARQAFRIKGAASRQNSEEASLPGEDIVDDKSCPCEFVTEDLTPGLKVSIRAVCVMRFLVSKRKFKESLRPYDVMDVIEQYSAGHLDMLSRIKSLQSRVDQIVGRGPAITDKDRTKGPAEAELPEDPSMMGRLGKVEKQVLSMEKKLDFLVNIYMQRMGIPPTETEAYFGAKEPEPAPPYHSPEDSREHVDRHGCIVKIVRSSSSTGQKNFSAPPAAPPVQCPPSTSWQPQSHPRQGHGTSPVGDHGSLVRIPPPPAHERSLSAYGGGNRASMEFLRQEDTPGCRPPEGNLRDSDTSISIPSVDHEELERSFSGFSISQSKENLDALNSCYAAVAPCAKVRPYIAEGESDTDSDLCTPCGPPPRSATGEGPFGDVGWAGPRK
pEC50: −log10 of the molar value.
So basically: pEC50 at 6 or higher? That is Yes. Lower than 6? That is No.

Record C[C@H](NC(=O)C[C@@H](O)C(C)(C)C)c1cccc(OC(F)(F)F)c1 [Example 1b] ; criterion: pEC50 no lower than 6. Met?
No

Record C[C@H](NC(=O)CC1(O)CC(F)(F)C1)c1cccc(OC(F)(F)F)c1 [Example 5] ; criterion: pEC50 no lower than 6. Met?
No

Record COC[C@H](NC(=O)CC1(O)CCCC1)c1cccc(OC(F)(F)F)c1 [Example 17] ; criterion: pEC50 no lower than 6. Met?
No

Record C[C@H](NC(=O)CC(O)(C(F)(F)F)C(F)(F)F)c1cccc(OC(F)(F)F)c1 [Example 9] ; criterion: pEC50 no lower than 6. Met?
Yes

Record C[C@H](NC(=O)CC1(O)CCC1)c1cccc(OCC(F)(F)F)c1 [Example 6] ; criterion: pEC50 no lower than 6. Met?
No
